# Tested on: OVCAR-4 ovarian
# ASSAY: NCI tumour cell line growth inhibition, 48 h
EXPERIMENTAL_ENDPOINT: TGI

Some solved cases for reference:
COMPOUND: Cc1ccc2c3c1O[C@H]1c4[nH]c5ccccc5c4C[C@@]4(O)[C@@H](C2)N(CC2CC2)CC[C@]314
MEAS_VALUE: 17.8 µM

COMPOUND: O=C(N/N=C/c1cc(Br)ccc1O)N/N=C/c1cc(Br)ccc1O
MEAS_VALUE: > 100 µM

COMPOUND: CC1S/C(=N\N=C2/C(=O)Nc3ccc(Br)cc32)N(C2CCCCC2)C1=O (stereo unspecified)
MEAS_VALUE: 4.89 µM

COMPOUND: Cc1cc(C(=O)Nc2ccc3cc(CN4CCOCC4)ccc3n2)c(C)n1-c1ccccc1
MEAS_VALUE: > 23.8 µM

COMPOUND: C/C(=N\Nc1ccc(Cl)cn1)c1ccc2ccccc2n1
MEAS_VALUE: > 100 µM

COMPOUND: O=[N+]([O-])c1ccc(S(=O)(=O)n2c3ccc(Br)cc3c3nc4ccccc4nc32)cc1
MEAS_VALUE: > 100 µM

COMPOUND: CC(=O)O[C@H]1C(=O)[C@@]2(C)[C@H]([C@H](OC(=O)c3ccoc3)[C@]3(O)C[C@H](OC(=O)[C@H](O)[C@@H](NC(=O)c4ccccc4)c4ccccc4)C(C)=C1C3(C)C)[C@]1(OC(C)=O)CO[C@@H]1C[C@@H]2O
MEAS_VALUE: > 12.5 µM

COMPOUND: NC(=O)c1cc(Cl)ccc1NC(=O)/C=C/c1ccccc1
MEAS_VALUE: > 100 µM

[ask] What does the data say about its TGI? Entry: COCCCNc1nc(N)c(C#N)c(C#N)c1C#N
[reply] > 10 µM

[ask] What measured TGI goes with COc1cc2c3c(n(CCCN)c(=O)c2cc1OC)-c1ccc(C#N)cc1C3=O ?
[reply] 41.3 µM

[ask] Reported TGI for COc1cc2c(cc1OCCCCC(=O)Nc1cc3c4ccccc4ccc3c3ccccc13)N=C[C@@H]1CCCN1C2=O : what is it?
[reply] 22.8 µM

[ask] For the compound shown here, N#C[C@@H](c1ccccn1)c1ncccc1[N+](=O)[O-] , give the reported TGI.
[reply] > 100 µM

[ask] Which TGI is listed for COC(=O)Nc1nc2ccc(C3(c4ccc(F)cc4)OCCO3)cc2[nH]1 ?
[reply] > 100 µM

[ask] Recorded TGI for COC1=C(OC)C(=O)C(Cc2c(C)nc3sccn23)=C(C)C1=O , please?
[reply] 18.1 µM
